src = PubChem BioAssay (NCI)

Consider the following compounds; for each one, report its growth inhibition.
# assay.details: NCI Yeast Anticancer Drug Screen. Data for the mec2-1 strain (AID 157)
# measurement.conditions: S. cerevisiae mec2-1 strain, at 50.0 µM, active compounds read high
The panel holds about 79,000 compounds, 15% with a hit somewhere; the sample as a whole holds those more often.
Give bare numbers, in %.

Below: 3 compounds and their reported growth inhibition.
compound: O=C(C(=O)c1cccs1)c1cccs1
endpoint: growth inhibition
reported: 9.05

compound: [O-][n+]1c(CN2CCCCC2)nc2cccc3c2c1-c1ccccc1-3
endpoint: growth inhibition
reported: 12.3

compound: C1=Nc2ccccc2/C1=C/c1cccs1
endpoint: growth inhibition
reported: 37

Each compound below has a reported value. Please supply its growth inhibition.
1. COc1ccccc1Oc1ccccc1
2. CCCCCCCCCCCCCCCCCCCCCCOC(=O)CCC(=O)OCCCCCCCCCCCCCCCCCCCCCC

1: -61.3; 2: -44.3

====

# assay.details: NCI Yeast Anticancer Drug Screen. Data for the cln2 rad14 strain (AID 165);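 also: 0% = growth equal to vehicle treated cultures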
# measurement.conditions: S. cerevisiae cln2 rad14 strain, at 50.0 µM, active compounds read high
The panel holds about 79,000 compounds, 15% with a hit somewhere; the sample as a whole holds those more often.
Consider the following compounds; for each one, report its growth inhibition.
One number for each entry, in %.

Below: 4 compounds and their reported growth inhibition.
compound: O=C(COc1ccccc1)NCc1ccc(Cl)cc1
display.unit: %
growth inhibition: 7.15
//
compound: COc1ccc(-c2cc(-c3cc(-c4ccc(OC)cc4)on3)no2)cc1
display.unit: %
growth inhibition: -7.45
//
compound: CC(C)(C#N)OC(=O)c1cccc(C(=O)OC(C)(C)C#N)c1Sc1ccccc1
display.unit: %
growth inhibition: 7.55
//
compound: COc1ccccc1/C=C1/C(=O)ON=C1C
display.unit: %
growth inhibition: 9.6

Each compound below has a reported value. Please supply its growth inhibition.
1. C[C@H]1C(=O)OCN1C(=O)OCc1ccccc1
2. c1ccc(COCCc2ccccn2)cc1
3. Cc1ccc(S(=O)(=O)N/N=C/C(C)c2cccnc2)cc1 (configuration not stated)

-6
-26.1
13.6

====

# assay.details: NCI Yeast Anticancer Drug Screen. Data for the sgs1 mgt1 strain (AID 161);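 also: 0% = growth of cultures given vehicle only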
# measurement.conditions: S. cerevisiae sgs1 mgt1 strain, at 50.0 µM, active compounds read high
The panel holds about 79,000 compounds, 15% with a hit somewhere; the sample as a whole holds those more often.
endpoint: growth inhibition (%)
Answers are plain numbers, in %.

Below: 4 compounds and their reported growth inhibition.
compound: O=C(Nc1cccc2c1C(=O)c1c(NC(=O)c3ccccc3)ccc(Nc3cccc4c3C(=O)c3ccccc3C4=O)c1C2=O)c1ccccc1
display.unit: %
reported: 0.9
//
compound: O=C1OC2C(O)C(N(O)c3ccccc3)OC2[C@@H]1O (some centres undefined)
display.unit: %
reported: 21.9
//
compound: CCOC(=O)C1CC(=O)NC(N)=N1 (centres undefined)
display.unit: %
reported: -13.6
//
compound: CC12CCC(C(S(=O)(=O)O)C1=O)C2(C)C (centres undefined) (tested in a mixture with another compound)
display.unit: %
reported: -6.7

Each compound below has a reported value. Please supply its growth inhibition.
1. CC(C)/C(Cl)=N/OC(=O)Nc1ccc(Br)cc1
2. CC1(c2ccco2)CCC(=O)CC1=O (centres undefined)
3. CC(=O)NCCc1nc(-c2nc(C(=O)NCCC(C)C)cs2)cs1
4. CC(C)(C)c1cc(C(=O)Nc2cc(Br)c(Br)cc2S(N)(=O)=O)cc(C(C)(C)C)c1O
5. O=P(O)(c1cc(Cl)cc(Cl)c1)c1cc(Cl)cc(Cl)c1
6. C[CH2][Sn]([CH2]C)([O]C(=O)c1cccc(F)c1)[O][Sn]([CH2]C)([CH2]C)[O]C(=O)c1cccc(F)c1

90.5
4.1
-2
31.6
10.2
5.85

Each compound below has a reported value. Please supply its growth inhibition.
1. Cc1ccccc1NC(=S)NC(=O)c1ccccc1
2. CC1(C)Cc2cccc(OC(=O)NO)c2O1

62.8
0.45
